System: Human immunodeficiency virus 1
Experiment: Inhibition of c-myc and His6-tagged full length HIV1 NL4-3 Vpr transfected in human TREx-HeLa cells assessed as cell proliferation at 2.5 uM after 48 hrs in presence of tetracycline by WST-8 assay (reference value: 100 +/- 1%)
Assay type: cell-based
Parameters: scale not given: the % may be the effect or the level left
property.measured: Activity (%)
# output: bare number, implied unit %

COC1=C[C@@H](O)[C@@H]2C[C@H]3OC(=O)C[C@H]4C(C)=C(OC)C(=O)[C@H]([C@@]2(C)C1=O)[C@@]34C :: 138
COC1=CC[C@@H]2C[C@H]3OC(=O)C[C@H]4C(C)=C(OC)C(=O)[C@H]([C@@]2(C)C1=O)[C@@]34C :: 159
COc1c(C=O)c(O)cc2c1C(=O)c1ccccc1C2=O :: 218
COC1=C(CO)[C@@H]2CC(=O)O[C@@H]3C[C@H]4CC[C@H](O)C(=O)[C@]4(C)[C@@H](C1=O)[C@@]32C :: 137
COC1=C(OC)C(=O)[C@@]2(C)[C@H](C1)C[C@H]1OC(=O)C[C@H]3C(C)=C(OC)C(=O)[C@H]2[C@@]13C :: 136

Query block: Fill in the recorded Activity for this compound, with Human immunodeficiency virus 1 as test system: `COC1=C(C)[C@@H]2CC(=O)O[C@@H]3C[C@H]4CC[C@H](OC)C(=O)[C@]4(C)[C@@H](C1=O)[C@@]32C`
Result block: 168

Query block: Try `COC1=CC[C@@H]2C[C@H]3OC(=O)C[C@H]4C(CO)=C(OC)C(=O)[C@H]([C@@]2(C)C1=O)[C@@]34C` next.
Result block: 147

src = ChEMBL document CHEMBL4428086
